# Test system: NCI-H226 lung
# assayRemarks: NCI-60 one-dose screen, 48 h
# conditionContext: 10 µM unless noted
The panel holds about 83,000 compounds, 20% with a hit somewhere; the sample as a whole holds those more often. Calls of active or inactive are those of the source. Rule for the calls: active = growth percent below 10; inactive = the rest.
Outcome (select one): true for active, false for inactive

Check out these entries, answers already filled in.
molecule	answerLabel
CC(O)Cc1c[nH]c(=O)[nH]c1=O (stereo unspecified)	false
CN(C)C1CN(C(=O)c2cc(-c3ccc4ncnc(N5CCc6cc(F)c(Cl)cc65)c4c3)cnc2N)C1	false
O=C(Nc1nc(Cl)nc(Nc2ccc(N3CCOCC3=O)cc2)n1)c1ccc(Cl)s1	false
COc1cc(OC)c2c(=O)c3c(CC=C(C)C)cc(OC)c(O)c3oc2c1	false
COc1cc([C@@H](CCO)C[C@H](C)c2ccc3ccccc3c2)cc(OC)c1OC	false
c1cc(OCCN2CCCC2)ccc1CNc1ccc2nc(CCC3CCCCC3)[nH]c2c1	false
C=C1C(=O)O[C@@H]2C3C(=C(C)CC[C@@H]12)CC1O[C@]13C (stereo partly specified)	false
S=c1ccnc[nH]1	false
Cc1cccc(NC(=O)Cn2cc(CN3CCN(c4ccnc5cc(Cl)ccc45)CC3)nn2)c1	false
COc1ccc(CNc2ccc3nc(NC(=O)CN4CCCCCC4)sc3c2)cc1	false

[Q] For "CN(C)CCn1c(=O)c2ccccc2n2nc3ccccc3c12" , what call appears in the results of this test?
[A] false

[Q] Recorded call for "CCC(C)(C)c1ccc(Nc2ccc(Nc3ccc(C(C)(C)CC)cc3)cc2)cc1" ?
[A] false

[Q] What did the test return for CCOC(=O)C1=C(CCl)N(C)C(=O)NC1c1ccc2c(c1)OCO2 (stereo unspecified) ?
[A] false

[Q] Look up the recorded call for CCN1C(=O)N(CC)C2C1NN=c1s/c(=C\c3ccc(OC)cc3)c(=O)n12 (stereo unspecified) in this test.
[A] false

[Q] Per the records of this test, what outcome belongs to "C=C(C)[C@@H]1CC[C@]2(C(=O)N3CCN(C)CC3)CC[C@]3(C)[C@H](CC[C@@H]4[C@@](C)(CCC(=O)O)[C@H](C(=C)C)CC[C@]43C)[C@@H]12" ?
[A] false

Data credit: PubChem BioAssay (NCI)
